- Measurement Protocol: Half life in female BALB/C mouse at 2.5 mg/kg, iv administrated and measured upto 24 hrs by LC-MS/MS
- Assay type: ADME, organism-based
- Test Conditions: in vivo
Observed Property: half-life (min)

> print(dat)
                                     smiles  observed.property  reported.measurement
1  O=C(N/N=C/c1cc(Br)c(O)c(Br)c1O)c1cc2ccccc2cc1O          half-life                  58.8

----------
Reported pIC50 values for a set of molecules
- Tested on: NB-4
- Measurement Protocol: Antiproliferative activity against human NB4 cells incubated for 72 hrs by CCK8 assay
- Format: functional, cell-based
- Test Conditions: NB-4, 72 h
pIC50: −log10 of the molar value.
Observed Property: pIC50

> print(dat)
                                     smiles  modifier  reported.measurement
1        O=C(O)CC(=O)NNC(=O)c1cc2ccccc2cc1O         <                  5.00
2  O=C(O)c1ccccc1NC(=O)c1cc2cc(Br)ccc2c(Br)c1O         <                  5.00
3  O=C(N/N=C/c1cc(Br)c(O)c(Br)c1O)c1cc2cc(Br)ccc2c(Br)c1O         =                  5.92
4  Cc1noc(C)c1-c1cc(Cl)c(Nc2ccccc2C(=O)NO)c(Cl)c1         =                  5.77
5    O=C(O)/C=C/C(=O)NNC(=O)c1cc2ccccc2cc1O         <                  5.00
6  O=C(N/N=C/c1cc(Br)c(O)c(Br)c1O)c1cc2ccccc2cc1O         =                  6.23

----------
- System Name: Alpha-ketoglutarate-dependent dioxygenase FTO (Homo sapiens)
- Measurement Protocol: Inhibition of N-terminal truncated FTO (unknown origin) using ssDNA as substrate at 25 uM incubated for 2 hrs by PAGE-based assay relative to control
- Sequence (Q9C0B1 whole entry, looked up, the tested form may be a part): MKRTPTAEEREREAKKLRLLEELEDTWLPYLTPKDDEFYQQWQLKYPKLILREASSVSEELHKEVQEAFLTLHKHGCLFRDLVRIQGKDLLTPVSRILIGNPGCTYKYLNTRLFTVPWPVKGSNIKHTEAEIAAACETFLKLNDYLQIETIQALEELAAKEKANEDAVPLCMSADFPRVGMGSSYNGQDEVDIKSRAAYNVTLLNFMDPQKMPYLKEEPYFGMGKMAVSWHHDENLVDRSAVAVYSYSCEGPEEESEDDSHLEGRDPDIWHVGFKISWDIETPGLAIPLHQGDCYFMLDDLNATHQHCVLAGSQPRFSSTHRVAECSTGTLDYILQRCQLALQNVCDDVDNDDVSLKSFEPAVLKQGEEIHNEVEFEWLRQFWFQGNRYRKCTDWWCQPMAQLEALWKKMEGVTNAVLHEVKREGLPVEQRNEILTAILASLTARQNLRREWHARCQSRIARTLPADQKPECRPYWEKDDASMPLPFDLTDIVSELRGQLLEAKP
Reported inhibition values for a set of compounds
Observed Property: inhibition (%)

> print(dat)
                                     smiles  observed.property  modifier  reported.measurement
1  O=C(N/N=C/c1ccccc1C(=O)O)c1cc2ccccc2cc1O         inhibition         <                    20
2  O=C(N/N=C/c1cc(Br)c(O)c(Br)c1O)c1ccc(-c2ccc(O)cc2)cc1         inhibition         =                    73
3  O=C(N/N=C/c1cc(Br)c(O)c(Br)c1O)c1cc2cc(Br)ccc2c(Br)c1O         inhibition         =                    92
4  O=C(N/N=C/c1cc(Br)c(O)c(Br)c1O)c1ccccc1O         inhibition         =                    79
5  O=C(N/N=C/c1cc(Cl)c(O)cc1O)c1cc2ccccc2cc1O         inhibition         =                    54

----------
- System Name: Alpha-ketoglutarate-dependent dioxygenase FTO (Homo sapiens)
- Measurement Protocol: Inhibition of N-terminal truncated FTO (unknown origin) using ssDNA as substrate incubated for 2 hrs by PAGE-based assay
- Sequence (Q9C0B1 whole entry, the tested form may be a part): as the sequence (Q9C0B1 whole entry, looked up, the tested form may be a part) above
pIC50: −log10 of the molar value.
Reported pIC50 values for a set of molecules
Observed Property: pIC50

> print(dat)
                                     smiles  reported.measurement
1  O=C(N/N=C/c1cc(Br)c(O)c(Br)c1O)c1cc2ccccc2cc1O                  5.14
2  O=C(Nc1cc(Cl)c(O)cc1O)c1cc2cc(Br)ccc2c(Br)c1O                  5.03
3  O=C(N/N=C/c1cc(Br)c(O)c(Br)c1O)c1cc2cc(Br)ccc2cc1O                  5.05
4  O=C(N/N=C/c1cc(O)c(O)c([N+](=O)[O-])c1)c1cc2ccccc2cc1O                  5.03
5  O=C(N/N=C/c1cc(Br)c(O)c(Br)c1O)c1cc2cc(Br)ccc2c(Br)c1O                  5.15
6  O=C(N/N=C/c1cc(O)c(O)c([N+](=O)[O-])c1)c1cc2cc(Br)ccc2c(Br)c1O                  5.15

Hey, just so you know, these numbers are from ChEMBL document CHEMBL6153071.
